Exercise: state measured SR for each of the compounds provided.
- Tested on: MES-SA/Dx5 cells
- run.description: PrestoBlue viability assay, MES-SA/Dx5 cells (MDR, P-gp positive)
- measurement.setup: selectivity ratio MES-SA vs MES-SA/Dx5, without TQ
Number only, please.

Given the compound COc1ccc(C(c2ccc3cccnc3c2O)N2CCOCC2)cc1 (stereo not drawn) , what is its reported SR? 1.29

Can you handle Oc1c(C(c2ccccc2Cl)N2CCCCC2)ccc2cccnc12 (stereo not drawn) next? 1.85

Can you handle COCc1cc(CN2CCOCC2)c(O)c2ncccc12 next? 1.75

Can you handle CC1CCN(Cc2cc(COC(C)C)c3cccnc3c2O)CC1 next? 7.96

Can you handle Oc1cc2c(cc1O)CN(Cc1ccc3cccnc3c1O)CC2 next? 0.95

Can you handle Oc1c(CN2CCCCC2)cc(Br)c2cccnc12 next? 10.67

Can you handle CN1CCN(C(c2ccccn2)c2cc(Cl)c3cccnc3c2O)CC1 (stereo not drawn) next? 1.15

Can you handle CCOCc1cc(CN2CCOCC2)c(O)c2ncccc12 next? 1.95

Can you handle CCCCOCc1cc(CN2CCN(C)CC2)c(O)c2ncccc12 next? 3.4

----------
Exercise: state measured IC50 for each of the compounds provided.
- Tested on: MES-SA/Dx5 cells
- run.description: PrestoBlue viability assay, MES-SA/Dx5 cells (MDR, P-gp positive)
- measurement.setup: Homo sapiens, MES-SA/Dx5, 72 h, read-out: IC50 / μM MES-SA/Dx5, absence of TQ; 72 h incubation
Numeric only. Scale: µM

So what IC50 did CC1CCN(Cc2cc(COC(C)C)c3cccnc3c2O)CC1 get with MES-SA/Dx5 cells? 0.36

Can you handle Oc1c(CN2CCc3ccccc3C2)ccc2cccnc12 next? 1.04

Can you handle CCOC(=O)C1CCN(Cc2cc(Cl)c3cccnc3c2O)CC1 next? 0.18

Can you handle Oc1c(CN2CCCCC2)cc(Br)c2cccnc12 next? 0.17

Can you handle Oc1c(CN2CCN(c3ccccc3)CC2)cc(Cl)c2cccnc12 next? 0.59

Can you handle CN1CCN(C(c2cccs2)c2ccc3cccnc3c2O)CC1 (stereo not drawn) next? 16.8

----------
- System: MES-SA/Dx5 cells
- run.description: PrestoBlue viability assay, MES-SA/Dx5 cells (MDR, P-gp positive)
- measurement.setup: Homo sapiens, MES-SA/Dx5, 72 h, read-out: IC50 / μM MES-SA/Dx5, absence of TQ; 72 h incubation
parameter: IC50 (µM)
Numeric only. Scale: µM

Given the molecule CN1CCN(C(c2ccccn2)c2cc(Cl)c3cccnc3c2O)CC1 (centres unmarked) , what is its reported IC50? 13.9

Can you handle Oc1c(C(c2cccs2)N2CCCCC2)ccc2cccnc12 (centres unmarked) next? 11.6

Can you handle COCc1cc(CN2CCN(C)CC2)c(O)c2ncccc12 next? 8.82

Can you handle COCc1ccc(O)c2ncccc12 next? 1.79

Can you handle Oc1c(CN2CCCC2)cc(Cl)c2cccnc12 next? 0.3

Can you handle Oc1c(C(c2ccccn2)N2CCOCC2)cc(Cl)c2cccnc12 (centres unmarked) next? 24.7

----------
- Test system: MES-SA/Dx5 cells
- run.description: PrestoBlue viability assay, MES-SA/Dx5 cells (MDR, P-gp positive)
- measurement.setup: selectivity ratio MES-SA vs MES-SA/Dx5, without TQ
Exercise: state measured SR for each of the compounds provided.
Number only, please.

Given the compound CC(C)OCc1cc(CN2CCN(c3ccccc3)CC2)c(O)c2ncccc12 , what is its reported SR? 4.24

Can you handle CCN(CC)Cc1ccc(O)c2ncccc12 next? 0.9

Can you handle Oc1c(CN2CCc3ccccc3C2)cc(Cl)c2cccnc12 next? 7.21

Can you handle Oc1c(CN2CCCC2)cc(Cl)c2cccnc12 next? 11.53

Can you handle Oc1c(CN2CCN(c3ccccc3)CC2)cc(Cl)c2cccnc12 next? 5.84

Can you handle CCOCc1cc(CN2CCCC2)c(O)c2ncccc12 next? 9.27

Can you handle Oc1c(C(c2ccc(Cl)cc2)N2CCCC2)ccc2cccnc12 (stereo not shown) next? 3

Can you handle Oc1c(CN2CCCCCC2)cc(Cl)c2cccnc12 next? 8.4

Can you handle Oc1ccc(CN2CCCCC2)c2cccnc12 next? 1.71

Can you handle CC1CCN(Cc2cc(Cl)c3cccnc3c2O)CC1 next? 10.37

Can you handle Oc1c(C(c2ccccc2)N2CCCCC2)cc(Cl)c2cccnc12 (stereo not shown) next? 1.06

Can you handle Oc1c(C(c2cccs2)N2CCCCC2)ccc2cccnc12 (stereo not shown) next? 0.76

Can you handle Oc1c(C(c2ccccn2)N2CCOCC2)cc(Cl)c2cccnc12 (stereo not shown) next? 1.62

Can you handle Oc1c(C(c2ccc(F)cc2)N2CCOCC2)ccc2cccnc12 (stereo not shown) next? 2.24

Can you handle CN1CCN(Cc2cnc3ccccc3c2O)CC1 next? 1.04

Can you handle Oc1c(C(c2ccccc2Br)N2CCCC2)ccc2cccnc12 (racemic) next? 1.98

Can you handle Oc1c(CN2CCCC2)cc(Br)c2cccnc12 next? 9.45

Can you handle Oc1c(CN2CCN(c3ccccn3)CC2)cc(Cl)c2cccnc12 next? 6.55

Can you handle OCCN1CCN(C(c2ccc(F)cc2)c2ccc3cccnc3c2O)CC1 (racemic) next? 2.29

Can you handle Oc1ccc(CN2CCOCC2)c2cccnc12 next? 0.73

Can you handle CC(C)OCc1cc(CN2CCCCC2)c(O)c2ncccc12 next? 12.57

Can you handle Oc1c(C(c2ccncc2)N2CCCCC2)ccc2cccnc12 (stereo not shown) [Compound 96] next? 1.62

Can you handle CCOCc1cc(CN2CCCCC2)c(O)c2ncccc12 next? 11.12

Can you handle OCCN(CCO)Cc1cc(Cl)c2cccnc2c1O next? 5.91

Can you handle Oc1c(CN2CCCCC2)cc(Cl)c2cccnc12 next? 8.71

Can you handle CN1CCN(Cc2cc(Cl)c3cccnc3c2O)CC1 next? 2.84

Can you handle Oc1ccc(Cl)c2cccnc12 [Compound 13, reference compound] next? 1.6

Can you handle CCOC(=O)C1CCN(Cc2ccc(O)c3ncccc23)CC1 next? 1.31

Can you handle CCOC(=O)C1CCN(Cc2cc(Cl)c3cccnc3c2O)CC1 next? 9.91

Can you handle Oc1c(CN2CCOCC2)cc(Br)c2cccnc12 next? 2.46

Can you handle Oc1c(C(c2ccccn2)N2CCN(c3ccccn3)CC2)ccc2cccnc12 (stereo not shown) next? 1.81

Can you handle CCN(CC)Cc1cc(Cl)c2cccnc2c1O next? 8.44

Can you handle COCc1cc(CN2CCCC2)c(O)c2ncccc12 next? 8.09

Can you handle Oc1c(CN2CCOCC2)ccc2cccnc12 next? 1.75
